# TEST: in vitro
# ASSAY CONTEXT: African green monkey
PARAMETER MEASURED: viability at 24 h (%)
Write the number in % without appending the unit.

Q: For O=C1NC(=O)c2c1c1c3ccccc3[nH]c1c1[nH]c3ccccc3c21 [AC#29, Arcyriaflavin A] , what is its reported viability at 24 h?
Result: 86.2

----------
# TEST: Cytotoxicity of ACs, WST-1, 24 h
# ASSAY CONTEXT: African green monkey, VERO cells
Below, each entry is listed alongside its reported viability at 24 h.
Write the number in % without appending the unit.

Example entries and their recorded answers appear below.
Cc1ccc(Cl)cc1N1CCN(C[C@H]2C(=O)O[C@@H]3C[C@@]4(C)CCC[C@H](C)[C@@]45O[C@H]5[C@@H]32)CC1 [AC#17] ... 96.8
O=C(CC1NC(=O)c2ccccc21)Nc1ccc2c(c1)C(=O)N1CCC[C@H]1C(=O)N2 (stereo partly drawn) [AC#28] ... 105

Q: For C[C@H]1CCC[C@]2(C)C[C@H]3OC(=O)[C@H](CN4CCN(c5ccccc5)CC4)[C@H]3[C@@H]3O[C@@]132 [AC#16] , what is its reported viability at 24 h?
Result: 102

Q: Also O=C(/C=C1\NCCc2cc3c(cc21)OCO3)c1cc2ccccc2o1 [AC#7] , if possible.
Result: 124

Q: Also CN1CCN(C(=O)CCn2c3c(c4ccccc42)CCn2c-3nc3ccccc3c2=O)CC1 [AC#10] , if possible.
Result: 73.2

Q: Also O=c1c(-c2c3cn[nH]c3nc3c2oc2cc(O)ccc23)cc2cccc3c2n1CC3 [AC#27] , if possible.
Result: 106
